tested on: H. influenzae; experiment: Broth dilution MIC determination (CLSI) against H. influenzae strains; type: cell-based; settings: erythro > 4, azithro 1
So I've got a bunch of molecules here, and I need their MIC H. influenzae erythro > 4, azithro 1 values.
Give bare numbers, in µg/mL.

Each of the following entries comes with a recorded value; kindly state MIC H. influenzae erythro > 4, azithro 1 for each.
1. CC[C@H]1OC(=O)[C@H](C)C(=O)[C@H](C)[C@@H](O[C@@H]2OC(Cn3cc(-c4ccccn4)nn3)CC(N(C)C)C2O)[C@](C)(OC)C[C@@H](C)CN[C@H](C)[C@H]2N(CCCCn3cc(-c4cccc(N)c4)nn3)C(=O)O[C@]12C (stereo partly drawn) [FSM-22111]
2. CCC1OC(=O)C(C)C(=O)C(C)C(OC2OC(Cn3cc(-c4cccc(N)n4)nn3)CC(N(C)C)C2O)C(C)(OC)CC(C)CNC(C)C2N(CCCCn3cc(-c4cccc(N)c4)nn3)C(=O)OC12C (stereo not drawn) [FSM-22372]

[1, 16]

Each of the following entries comes with a recorded value; kindly state MIC H. influenzae erythro > 4, azithro 1 for each.
1. CCC1OC(=O)C(C)C(=O)C(C)C(OC2OC(Cn3cc(-c4cnc(N)s4)nn3)CC(N(C)C)C2O)C(C)(OC)CC(C)CNC(C)C2N(CCCCn3cc(-c4cccc(N)c4)nn3)C(=O)OC12C (stereo not drawn) [FSM-22373]
2. CC[C@H]1OC(=O)[C@H](C)C(=O)[C@H](C)[C@@H](O[C@@H]2OC(Cn3cc(-c4ccccn4)nn3)CC(N(C)C)C2O)[C@](C)(OC)C[C@@H](C)CN[C@H](C)[C@H]2N(CCCCn3cc(-c4cccc(N)c4)nn3)C(=O)O[C@]12C (stereo partly drawn) [FSM-22366]

1. 16
2. 4
